biological target: Eukaryotic initiation factor 4A-I (Homo sapiens, UniProt P60842); assay: Selectivity index, ratio of EC50 for eIF4FA in human MDA-MB-231 cells transfected with tubulin 5'-UTR-luciferase construct to EC50 for eIF4FA in human MDA-MB-231 cells transfected with c-myc- 5'-UTR-luciferase construct by differential translation assay; assay type: cell-based
Sequence (P60842 whole entry): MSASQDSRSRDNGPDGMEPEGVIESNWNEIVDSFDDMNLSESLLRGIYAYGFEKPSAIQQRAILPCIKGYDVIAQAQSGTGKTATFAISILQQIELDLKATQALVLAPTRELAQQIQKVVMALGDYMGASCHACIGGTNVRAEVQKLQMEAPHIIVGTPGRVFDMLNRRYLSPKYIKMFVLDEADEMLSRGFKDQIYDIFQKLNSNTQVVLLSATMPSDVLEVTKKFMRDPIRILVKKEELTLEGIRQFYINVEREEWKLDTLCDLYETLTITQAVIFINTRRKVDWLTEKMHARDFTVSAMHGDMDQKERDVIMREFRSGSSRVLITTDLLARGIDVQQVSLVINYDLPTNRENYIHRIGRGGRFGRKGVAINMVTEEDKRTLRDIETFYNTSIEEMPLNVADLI
Where Ratio EC50 equals or exceeds 10, the correct label is Fulfilled; where it does not, the label is Not fulfilled.

Query: Is it the case that `COC(=O)[C@H]1[C@@H](O)[C@@]2(O)c3c(OC)cc(O[C@H]4COC[C@H](CO)O4)cc3O[C@@]2(c2ccc(OC)cc2)[C@@H]1c1ccccc1` has Ratio EC50 reaching or exceeding 10?
Reply: Fulfilled

Query: Is it the case that `COC(=O)[C@H]1[C@@H](O)[C@@]2(O)c3c(OC)cc(O[C@H]4CCC[C@@H](CO)O4)cc3O[C@@]2(c2ccc(OC)cc2)[C@@H]1c1ccccc1` has Ratio EC50 reaching or exceeding 10?
Reply: Fulfilled

Query: Is it the case that COC(=O)[C@H]1[C@@H](O)[C@@]2(O)c3c(OC)cc(OC)cc3O[C@@]2(c2ccc(OC)cc2)[C@@H]1c1ccccc1 [AGLAFOLIN] has Ratio EC50 reaching or exceeding 10?
Reply: Not fulfilled

Query: Is it the case that `COC(=O)c1cc(OC)c2c(c1)O[C@@]1(c3ccc(OC)cc3)[C@H](c3ccccc3)[C@@H](C(=O)OC)[C@@H](O)[C@@]21O` has Ratio EC50 reaching or exceeding 10?
Reply: Fulfilled

Query: Is it the case that `COC(=O)[C@H]1[C@@H](O)[C@@]2(O)c3c(OC)cc(O[C@H]4COC[C@H]([C@H](O)CO)O4)cc3O[C@@]2(c2ccc(OC)cc2)[C@@H]1c1ccccc1` has Ratio EC50 reaching or exceeding 10?
Reply: Not fulfilled

Query: Is it the case that `COC(=O)[C@H]1[C@@H](O)[C@@]2(O)c3c(OC)cc(O[C@H]4O[C@@H](CO)CO[C@H]4OC)cc3O[C@@]2(c2ccc(OC)cc2)[C@@H]1c1ccccc1` has Ratio EC50 reaching or exceeding 10?
Reply: Not fulfilled

Query: Is it the case that `COC(=O)[C@H]1[C@@H](O)[C@@]2(O)c3c(OC)cc(Cl)cc3O[C@@]2(c2ccc(OC)cc2)[C@@H]1c1ccccc1` has Ratio EC50 reaching or exceeding 10?
Reply: Fulfilled

Query: Is it the case that `COC(=O)[C@H]1[C@@H](O)[C@@]2(O)c3c(OC)cc(O[C@@H]4O[C@@H](CCO)CO[C@@H]4OC)cc3O[C@@]2(c2ccc(OC)cc2)[C@@H]1c1ccccc1` has Ratio EC50 reaching or exceeding 10?
Reply: Not fulfilled

Query: Is it the case that `COC(=O)[C@H]1[C@@H](O)[C@@]2(O)c3c(OC)cc(C#N)cc3O[C@@]2(c2ccc(OC)cc2)[C@@H]1c1ccccc1` has Ratio EC50 reaching or exceeding 10?
Reply: Fulfilled

Query: Is it the case that `COC(=O)[C@H]1[C@@H](O)[C@@]2(O)c3c(OC)cc(C(N)=O)cc3O[C@@]2(c2ccc(OC)cc2)[C@@H]1c1ccccc1` has Ratio EC50 reaching or exceeding 10?
Reply: Fulfilled

Query: Is it the case that `COC(=O)[C@H]1[C@@H](O)[C@@]2(O)c3c(OC)cc(O[C@@H]4O[C@@H](CO)CO[C@H]4OC)cc3O[C@@]2(c2ccc(OC)cc2)[C@@H]1c1ccccc1` has Ratio EC50 reaching or exceeding 10?
Reply: Fulfilled

Query: Is it the case that `COC(=O)[C@H]1[C@@H](O)[C@@]2(O)c3c(OC)cc(C(C)=O)cc3O[C@@]2(c2ccc(OC)cc2)[C@@H]1c1ccccc1` has Ratio EC50 reaching or exceeding 10?
Reply: Fulfilled

Query: Is it the case that `COC(=O)[C@H]1[C@@H](O)[C@@]2(O)c3c(OC)cc(O)cc3O[C@@]2(c2ccc(OC)cc2)[C@@H]1c1ccccc1` has Ratio EC50 reaching or exceeding 10?
Reply: Fulfilled
